# protocol.details: Enantioselective pharmacokinetics in whole blood of healthy volunteers after a single oral dose of tramadol (LC‐MS/MS)
# Format: in vivo, human
# measurement.context: 100 mg oral single dose, n = 9, whole blood
observable: AUC, median
Include the unit after the number when you answer.

Go through the items and report each one's AUC, median.
1. CNCC1CCCCC1(O)c1cccc(OC)c1 (stereo not drawn) [(+)‐NDT]
2. COc1cccc([C@@]2(O)CCCC[C@@H]2CN(C)C)c1 [(+)‐tramadol, reference compound]

A.
["324 ng·h/g", "1810 ng·h/g"]

Go through the items and report each one's AUC, median.
1. CNCC1CCCCC1(O)c1cccc(OC)c1 (stereo not drawn) [(−)‐NDT]
2. COc1cccc(C2(O)CCCCC2CN(C)C)c1 (stereo not drawn) [(−)‐tramadol, reference compound]

A.
84 ng·h/g
1526 ng·h/g

====

# protocol.details: Enantioselective pharmacokinetics in whole blood of healthy volunteers after a single oral dose of tramadol (LC‐MS/MS)
# Type: in vivo, human
# measurement.context: 100 mg oral single dose, n = 9, whole blood
observable: t max, mean (h)
Answers are plain numbers, in h.

Observe how each entry below is paired with its result.
COc1cccc(C2(O)CCCCC2CN(C)C)c1 (stereo not drawn) [(−)‐tramadol, reference compound] :: 2.6
CNCC1CCCCC1(O)c1cccc(O)c1 (stereo not drawn) [(+)‐NODT, (+)‐N,O‐didesmethyltramadol] :: 6.1
COc1cccc([C@@]2(O)CCCC[C@@H]2CN(C)C)c1 [(+)‐tramadol, reference compound] :: 2.7
CNC[C@H]1CCCC[C@]1(O)c1cccc(O)c1 [(−)‐NODT] :: 5.0
CNCC1CCCCC1(O)c1cccc(OC)c1 (stereo not drawn) [(−)‐NDT] :: 3.8

Q. Return value of t max, mean for input CNCC1CCCCC1(O)c1cccc(OC)c1 (stereo not drawn) [(+)‐NDT] , no commentary.
A. 5.5

====

# protocol.details: Enantioselective pharmacokinetics in whole blood of healthy volunteers after a single oral dose of tramadol (LC‐MS/MS)
# Format: in vivo, human
# measurement.context: 100 mg oral single dose, n = 9, whole blood
observable: t 1/2, median (h)
One number for each entry, in h.

COc1cccc([C@@]2(O)CCCC[C@@H]2CN(C)C)c1 [(+)‐tramadol, reference compound] :: 5.9
COc1cccc(C2(O)CCCCC2CN(C)C)c1 (stereo not drawn) [(−)‐tramadol, reference compound] :: 5.5
CNCC1CCCCC1(O)c1cccc(OC)c1 (stereo not drawn) [(+)‐NDT] :: 7.4

Shift focus to the following entry.
Q. Return value of t 1/2, median for input CNCC1CCCCC1(O)c1cccc(OC)c1 (stereo not drawn) [(−)‐NDT] , no commentary.
A. 5.7

====

# protocol.details: Enantioselective pharmacokinetics in whole blood of healthy volunteers after a single oral dose of tramadol (LC‐MS/MS)
# Type: in vivo, human
# measurement.context: 100 mg oral single dose, n = 9, whole blood
observable: C max, mean (ng/g)
Answers are plain numbers, in ng/g.

Observe how each entry below is paired with its result.
CNCC1CCCCC1(O)c1cccc(O)c1 (stereo not drawn) [(+)‐NODT, (+)‐N,O‐didesmethyltramadol] :: 13
CNCC1CCCCC1(O)c1cccc(OC)c1 (stereo not drawn) [(−)‐NDT] :: 12
COc1cccc([C@@]2(O)CCCC[C@@H]2CN(C)C)c1 [(+)‐tramadol, reference compound] :: 176
CNC[C@H]1CCCC[C@]1(O)c1cccc(O)c1 [(−)‐NODT] :: 16
COc1cccc(C2(O)CCCCC2CN(C)C)c1 (stereo not drawn) [(−)‐tramadol, reference compound] :: 160

Shift focus to the following entry.
Q. Return value of C max, mean for input CNCC1CCCCC1(O)c1cccc(OC)c1 (stereo not drawn) [(+)‐NDT] , no commentary.
A. 30

====

# protocol.details: Enantioselective pharmacokinetics in whole blood of healthy volunteers after a single oral dose of tramadol (LC‐MS/MS)
# Type: in vivo, human
# measurement.context: 50 mg oral single dose, n = 10, whole blood
observable: AUC, median (ng·h/g)
Answers are plain numbers, in ng·h/g.

COc1cccc([C@@]2(O)CCCC[C@@H]2CN(C)C)c1 [(+)‐tramadol, reference compound] :: 775
CNCC1CCCCC1(O)c1cccc(OC)c1 (stereo not drawn) [(−)‐NDT] :: 36
CNCC1CCCCC1(O)c1cccc(OC)c1 (stereo not drawn) [(+)‐NDT] :: 128

Shift focus to the following entry.
Q. Return value of AUC, median for input COc1cccc(C2(O)CCCCC2CN(C)C)c1 (stereo not drawn) [(−)‐tramadol, reference compound] , no commentary.
A. 631

====

# protocol.details: Enantioselective pharmacokinetics in whole blood of healthy volunteers after a single oral dose of tramadol (LC‐MS/MS)
# Format: in vivo, human
# measurement.context: 50 mg oral single dose, n = 10, whole blood
observable: t 1/2, mean (h)
Give bare numbers, in h.

COc1cccc([C@@]2(O)CCCC[C@@H]2CN(C)C)c1 [(+)‐tramadol, reference compound] :: 5.8
CNCC1CCCCC1(O)c1cccc(OC)c1 (stereo not drawn) [(−)‐NDT] :: 6.2
COc1cccc(C2(O)CCCCC2CN(C)C)c1 (stereo not drawn) [(−)‐tramadol, reference compound] :: 5.4

Q. Return value of t 1/2, mean for input CNCC1CCCCC1(O)c1cccc(OC)c1 (stereo not drawn) [(+)‐NDT] , no commentary.
A. 8.1

====

# protocol.details: Enantioselective pharmacokinetics in whole blood of healthy volunteers after a single oral dose of tramadol (LC‐MS/MS)
# Format: in vivo, human
# measurement.context: 100 mg oral single dose, n = 9, whole blood
# Protocol: Blood samples were drawn from a peripheral venous catheter in the forearm at 17 occasions; prior to dosing and at 0.5, 1, 1.5, 2, 2.5, 3, 3.5, 4, 5, 6, 7, 8, 10, 24, 48, and 72 hours after administration. The tubes contained sodium fluoride and potassium oxalate. […] C max was defined as the maximum measured concentration and t max the time when C max was achieved. […]
observable: t max, median (h)
Answers are plain numbers, in h.

Observe how each entry below is paired with its result.
COc1cccc([C@@]2(O)CCCC[C@@H]2CN(C)C)c1 [(+)‐tramadol, reference compound] :: 3.0
COc1cccc(C2(O)CCCCC2CN(C)C)c1 (stereo not drawn) [(−)‐tramadol, reference compound] :: 3.0
CNC[C@H]1CCCC[C@]1(O)c1cccc(O)c1 [(−)‐NODT] :: 4.1
CNCC1CCCCC1(O)c1cccc(O)c1 (stereo not drawn) [(+)‐NODT, (+)‐N,O‐didesmethyltramadol] :: 5.3
CNCC1CCCCC1(O)c1cccc(OC)c1 (stereo not drawn) [(−)‐NDT] :: 3.6

Shift focus to the following entry.
Q. Return value of t max, median for input CNCC1CCCCC1(O)c1cccc(OC)c1 (stereo not drawn) [(+)‐NDT] , no commentary.
A. 4.1

====

For each of the compounds below, state its AUC, mean.
# protocol.details: Enantioselective pharmacokinetics in whole blood of healthy volunteers after a single oral dose of tramadol (LC‐MS/MS)
# Type: in vivo, human
# measurement.context: 50 mg oral single dose, n = 10, whole blood
Numbers only, in ng·h/g.

COc1cccc([C@@]2(O)CCCC[C@@H]2CN(C)C)c1 [(+)‐tramadol, reference compound] :: 786
CNCC1CCCCC1(O)c1cccc(OC)c1 (stereo not drawn) [(+)‐NDT] :: 293
CNCC1CCCCC1(O)c1cccc(OC)c1 (stereo not drawn) [(−)‐NDT] :: 99

Shift focus to the following entry.
Q. Return value of AUC, mean for input COc1cccc(C2(O)CCCCC2CN(C)C)c1 (stereo not drawn) [(−)‐tramadol, reference compound] , no commentary.
A. 668

====

For each of the molecules below, state its t max, median.
# protocol.details: Enantioselective pharmacokinetics in whole blood of healthy volunteers after a single oral dose of tramadol (LC‐MS/MS)
# Format: in vivo, human
# measurement.context: 50 mg oral single dose, n = 10, whole blood
Answers are plain numbers, in h.

COc1cccc(C2(O)CCCCC2CN(C)C)c1 (stereo not drawn) [(−)‐tramadol, reference compound] :: 2.4
CNCC1CCCCC1(O)c1cccc(OC)c1 (stereo not drawn) [(+)‐NDT] :: 3.6
COc1cccc([C@@]2(O)CCCC[C@@H]2CN(C)C)c1 [(+)‐tramadol, reference compound] :: 2.6

Go through the items and report each one's t max, median.
1. CNCC1CCCCC1(O)c1cccc(OC)c1 (stereo not drawn) [(−)‐NDT]
2. CNC[C@H]1CCCC[C@]1(O)c1cccc(O)c1 [(−)‐NODT]
3. CNCC1CCCCC1(O)c1cccc(O)c1 (stereo not drawn) [(+)‐NODT, (+)‐N,O‐didesmethyltramadol]

A.
1: 2.6; 2: 2.9; 3: 3.6
